target: FGFR2 (human); test: radiometric filter-binding kinase assay, Kinase HotSpot; details: compound 0.5 µM; ATP 10 µM
Field: residual activity. Provide a value for each of the compounds that follow.
Answers are plain numbers, in %.

# annotated cases, reported residual activity shown
N#Cc1c(NC(=O)c2cccc3ccccc23)sc2c1CCCC2 :: 110
CCOc1cc2ncnc(Nc3cccc(Br)c3)c2cc1OCC :: 96.3
COc1cc2c(cc1OC)-c1[nH]nc(Nc3cccc(F)c3)c1C2 :: 100
FC(F)(F)c1ccc(/C=C/c2nc(COc3ccc(CCCCn4ccnn4)cc3)co2)cc1 :: 96.7
COc1cc2c(Nc3ccc(Br)cc3F)ncnc2cc1OCC1CCN(C)CC1 :: 38.4

Respectfully, I request residual activity for each entry included below.
1. Nc1ncnc2c1cnn2-c1ccccc1
2. COc1cc2c(N3CCN(C(=O)Nc4ccc(OC(C)C)cc4)CC3)ncnc2cc1OCCCN1CCCCC1
3. O=c1[nH]c2ccccc2n1C1CCN(Cc2ccc(-c3nc4cc5[nH]cnc5cc4nc3-c3ccccc3)cc2)CC1

[out]
[100, 99.8, 94.2]

---

biological target: UniProt P49761; assay: radiometric filter-binding kinase assay, Kinase HotSpot; settings: compound 0.5 µM; ATP 10 µM
Sequence (P49761 whole entry, looked up): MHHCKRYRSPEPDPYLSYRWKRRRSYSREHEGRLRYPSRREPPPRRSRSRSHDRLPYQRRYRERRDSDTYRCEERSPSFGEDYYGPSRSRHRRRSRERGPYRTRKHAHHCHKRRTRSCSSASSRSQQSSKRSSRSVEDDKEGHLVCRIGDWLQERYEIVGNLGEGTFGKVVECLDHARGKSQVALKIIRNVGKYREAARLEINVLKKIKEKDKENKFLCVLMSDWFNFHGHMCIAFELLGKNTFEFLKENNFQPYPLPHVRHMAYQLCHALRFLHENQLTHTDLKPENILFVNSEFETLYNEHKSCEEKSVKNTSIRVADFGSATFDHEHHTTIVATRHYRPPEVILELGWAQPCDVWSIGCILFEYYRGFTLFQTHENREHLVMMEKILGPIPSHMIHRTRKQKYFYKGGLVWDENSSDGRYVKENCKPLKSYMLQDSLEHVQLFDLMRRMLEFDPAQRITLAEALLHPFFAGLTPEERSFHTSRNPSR
Experimental Endpoint: residual activity (%)
Answers are plain numbers, in %.

// for each molecule below, give its residual activity
1. O=S(=O)(NCCNC/C=C/c1ccc(Br)cc1)c1cccc2cnccc12
2. O=C1NC(=O)c2cc(Nc3ccc(F)cc3)c(Nc3ccc(F)cc3)cc21
3. O=c1c(-c2ccc(F)cc2)c(-c2ccncc2)[nH]n1-c1ccc(Cl)cc1

[out]
1. 87.6
2. 93.7
3. 88.7

Quick one: give me residual activity for each item below, same order please.
1. FC(F)(F)c1ccc(/C=C/c2nc(COc3ccc(CCCCn4ccnn4)cc3)co2)cc1
2. O=C(O)c1ccc2c3c1cccc3c(=O)n1c3ccccc3nc21

[out]
92.2
95.4

---

target: CDK3 CCNE1 (human) (UniProt Q00526+P24864); test: radiometric filter-binding kinase assay, Kinase HotSpot; conditions: compound 0.5 µM; ATP 10 µM
Sequence (P24864 whole entry, looked up): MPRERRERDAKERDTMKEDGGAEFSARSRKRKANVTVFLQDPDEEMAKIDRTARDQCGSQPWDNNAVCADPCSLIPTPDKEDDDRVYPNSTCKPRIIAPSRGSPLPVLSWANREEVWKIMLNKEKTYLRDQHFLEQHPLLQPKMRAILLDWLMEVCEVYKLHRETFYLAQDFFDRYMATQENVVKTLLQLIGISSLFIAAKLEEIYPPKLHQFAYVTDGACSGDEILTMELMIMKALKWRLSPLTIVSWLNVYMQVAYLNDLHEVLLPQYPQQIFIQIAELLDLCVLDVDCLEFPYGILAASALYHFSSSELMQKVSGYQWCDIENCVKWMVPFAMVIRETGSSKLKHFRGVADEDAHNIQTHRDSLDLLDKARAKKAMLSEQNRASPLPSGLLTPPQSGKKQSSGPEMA
Sequence (Q00526 whole entry, looked up): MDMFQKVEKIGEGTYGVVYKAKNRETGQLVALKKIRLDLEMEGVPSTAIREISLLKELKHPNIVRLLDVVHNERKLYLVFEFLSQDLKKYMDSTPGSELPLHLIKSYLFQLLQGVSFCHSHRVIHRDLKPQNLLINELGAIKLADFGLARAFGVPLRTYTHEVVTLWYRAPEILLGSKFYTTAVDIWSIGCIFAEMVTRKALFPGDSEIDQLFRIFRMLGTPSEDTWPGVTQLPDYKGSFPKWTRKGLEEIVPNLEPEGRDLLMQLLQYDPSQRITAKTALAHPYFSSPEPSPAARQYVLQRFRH
Experimental Endpoint: residual activity (%)
One number for each entry, in %.

CC(C)(C)n1nc(Cc2cccc3ccccc23)c2c(N)ncnc21 :: 87.8
CCOc1cc2ncnc(Nc3cccc(Br)c3)c2cc1OCC :: 95.2

List the reported residual activity of each compound below.
1. O=c1c(-c2ccc(F)cc2)c(-c2ccncc2)[nH]n1-c1ccc(Cl)cc1
2. O=C1NC(=O)c2cc(Nc3ccc(F)cc3)c(Nc3ccc(F)cc3)cc21
3. COc1cc2c(N3CCN(C(=O)Nc4ccc(OC(C)C)cc4)CC3)ncnc2cc1OCCCN1CCCCC1
4. Cc1cc(Nc2nc(-c3ccccc3)nc3ccccc23)n[nH]1
5. CCCCc1c(-c2ccc(O)cc2)[nH]c2nccnc12

[out]
86.9
98.9
90.6
85
76.8

---

molecular target: MAPK8 (human) (UniProt P45983); experiment: radiometric filter-binding kinase assay, Kinase HotSpot; conditions: compound 0.5 µM; ATP 10 µM
Sequence (P45983 whole entry, looked up): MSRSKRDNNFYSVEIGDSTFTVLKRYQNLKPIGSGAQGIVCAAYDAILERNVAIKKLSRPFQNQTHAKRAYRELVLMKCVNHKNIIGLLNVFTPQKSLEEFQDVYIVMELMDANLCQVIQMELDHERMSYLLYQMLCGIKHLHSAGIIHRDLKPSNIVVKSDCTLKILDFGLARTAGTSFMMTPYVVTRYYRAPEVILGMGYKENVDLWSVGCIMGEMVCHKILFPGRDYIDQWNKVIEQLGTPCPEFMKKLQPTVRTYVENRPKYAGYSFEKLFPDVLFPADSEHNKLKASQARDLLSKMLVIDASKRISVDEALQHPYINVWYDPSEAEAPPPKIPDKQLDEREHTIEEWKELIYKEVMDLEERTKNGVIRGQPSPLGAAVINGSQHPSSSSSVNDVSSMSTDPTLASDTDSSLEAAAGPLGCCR
Experimental Endpoint: residual activity (%)
One number for each entry, in %.

Worked examples, 2 compounds total:
CCc1nc(-c2ccc(OC)cc2)[nH]c1-c1ccncc1 :: 98.9
COc1cc2ncnc(Nc3ccc(O)c(Br)c3)c2cc1OC :: 101

Record residual activity per entry; entries follow.
1. CCOc1cc2ncnc(Nc3cccc(Br)c3)c2cc1OCC
2. N#Cc1c(NC(=O)c2cccc3ccccc23)sc2c1CCCC2

[out]
[90.7, 87.3]

---

biological target: DAPK3 (human) (UniProt O43293); test: radiometric filter-binding kinase assay, Kinase HotSpot; conditions: compound 0.5 µM; ATP 10 µM
Sequence (O43293 whole entry, looked up): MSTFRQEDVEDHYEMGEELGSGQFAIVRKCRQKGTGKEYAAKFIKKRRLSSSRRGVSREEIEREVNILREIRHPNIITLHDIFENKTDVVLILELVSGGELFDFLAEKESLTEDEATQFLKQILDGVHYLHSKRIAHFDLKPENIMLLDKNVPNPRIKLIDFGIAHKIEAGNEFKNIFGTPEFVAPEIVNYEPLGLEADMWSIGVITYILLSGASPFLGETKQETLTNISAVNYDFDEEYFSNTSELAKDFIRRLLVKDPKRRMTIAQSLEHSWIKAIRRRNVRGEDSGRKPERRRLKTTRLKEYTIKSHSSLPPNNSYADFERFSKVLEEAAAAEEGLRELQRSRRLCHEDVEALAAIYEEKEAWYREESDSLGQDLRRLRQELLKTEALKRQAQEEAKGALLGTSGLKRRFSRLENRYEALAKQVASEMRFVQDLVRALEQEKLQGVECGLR
I'd appreciate it if you could supply residual activity values for the items below.
Give bare numbers, in %.

// known answers, use as guide
N#CCCc1ccc2c(c1)-c1[nH]c3ccc([N+](=O)[O-])cc3c1CC(=O)N2 :: 99.3
FC(F)(F)c1ccc(/C=C/c2nc(COc3ccc(CCCCn4ccnn4)cc3)co2)cc1 :: 105
O=c1cc(N2CCOCC2)oc2c(-c3ccccc3)cccc12 :: 96.5

I'm hoping you can list residual activity for every compound here, please.
1. COc1cccc(-c2cc(=O)c3ccccc3o2)c1N
2. CN[C@@H]1C[C@H]2O[C@@](C)([C@@H]1OC)n1c3ccccc3c3c4c(c5c6ccccc6n2c5c31)C(=O)NC4

[out]
101
1.91

---

I'd appreciate it if you could supply residual activity values for the items below.
target: PLK2 (human); assay: radiometric filter-binding kinase assay, Kinase HotSpot; conditions: compound 0.5 µM; ATP 10 µM
Numbers only, in %.

Please go through the list and note residual activity for each compound.
1. O=c1cc(N2CCOCC2)oc2c(-c3ccccc3)cccc12
2. COc1cc2c(cc1OC)-c1[nH]nc(Nc3cccc(F)c3)c1C2
3. c1ccc(-c2cnc(Nc3ccc(OCCN4CCCC4)cc3)s2)cc1
4. Cn1cc(/C=C2\C(=O)Nc3ccc(S(N)(=O)=O)cc32)c2ccccc21

[out]
1: 98.9; 2: 97.1; 3: 105; 4: 104

Kindly give each listed record's residual activity.
1. O=C1NC(=O)c2cc(Nc3ccc(F)cc3)c(Nc3ccc(F)cc3)cc21
2. COc1cc2c(Nc3ccc(Br)cc3F)ncnc2cc1OCC1CCN(C)CC1
3. N/C(=N\N=C/c1ccc(-c2cccc([N+](=O)[O-])c2)o1)N[N+](=O)[O-]

[out]
99.6
103
107

---

target: BTK (human) (UniProt Q06187); assay: radiometric filter-binding kinase assay, Kinase HotSpot; conditions: compound 0.5 µM; ATP 10 µM
Sequence (Q06187 whole entry, looked up): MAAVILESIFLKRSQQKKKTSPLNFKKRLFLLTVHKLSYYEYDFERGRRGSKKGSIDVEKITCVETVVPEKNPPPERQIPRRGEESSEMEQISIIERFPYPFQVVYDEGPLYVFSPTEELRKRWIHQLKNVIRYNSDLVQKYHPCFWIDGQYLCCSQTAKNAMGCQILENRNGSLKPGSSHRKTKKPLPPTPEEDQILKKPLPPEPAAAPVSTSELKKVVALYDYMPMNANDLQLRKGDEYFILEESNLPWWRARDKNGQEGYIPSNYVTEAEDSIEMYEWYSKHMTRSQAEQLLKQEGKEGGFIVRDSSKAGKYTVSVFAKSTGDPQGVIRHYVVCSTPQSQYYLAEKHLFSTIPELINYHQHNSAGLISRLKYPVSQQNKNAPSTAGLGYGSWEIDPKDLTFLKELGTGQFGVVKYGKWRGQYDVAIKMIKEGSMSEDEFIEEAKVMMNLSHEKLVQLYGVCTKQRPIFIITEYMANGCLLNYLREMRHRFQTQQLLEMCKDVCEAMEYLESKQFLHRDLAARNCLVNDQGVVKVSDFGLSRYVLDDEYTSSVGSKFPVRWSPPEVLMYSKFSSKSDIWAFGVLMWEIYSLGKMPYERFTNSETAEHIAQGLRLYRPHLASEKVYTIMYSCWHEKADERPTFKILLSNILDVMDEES
Experimental Endpoint: residual activity (%)
Answers are plain numbers, in %.

Look over these answered cases.
COc1cc2c(N3CCN(C(=O)Nc4ccc(OC(C)C)cc4)CC3)ncnc2cc1OCCCN1CCCCC1 :: 102
O=C(O)c1ccc2c3c1cccc3c(=O)n1c3ccccc3nc21 :: 109
O=C1NC(=O)c2c1c1c3ccccc3[nH]c1c1[nH]c3cc(Br)ccc3c21 :: 74.8
FC(F)(F)c1ccc(/C=C/c2nc(COc3ccc(CCCCn4ccnn4)cc3)co2)cc1 :: 98.2
O=c1[nH]c2ccccc2n1C1CCN(Cc2ccc(-c3nc4cc5[nH]cnc5cc4nc3-c3ccccc3)cc2)CC1 :: 98.4

Quick request: residual activity for each listed item, please.
1. COc1cc2c(Nc3ccc(Br)cc3F)ncnc2cc1OCC1CCN(C)CC1
2. O=c1cc(N2CCOCC2)oc2c(-c3ccccc3)cccc12
3. O=C(c1ccccc1)c1ccc(N2CCOCC2)cc1O
4. COc1cccc(-c2cc(=O)c3ccccc3o2)c1N
5. O=S(=O)(NCCNC/C=C/c1ccc(Br)cc1)c1cccc2cnccc12

[out]
[17.6, 94.5, 103, 83.7, 97.4]

---

target: MAPK11 (human) (UniProt Q15759); test: radiometric filter-binding kinase assay, Kinase HotSpot; details: compound 0.5 µM; ATP 10 µM
Sequence (Q15759 whole entry, looked up): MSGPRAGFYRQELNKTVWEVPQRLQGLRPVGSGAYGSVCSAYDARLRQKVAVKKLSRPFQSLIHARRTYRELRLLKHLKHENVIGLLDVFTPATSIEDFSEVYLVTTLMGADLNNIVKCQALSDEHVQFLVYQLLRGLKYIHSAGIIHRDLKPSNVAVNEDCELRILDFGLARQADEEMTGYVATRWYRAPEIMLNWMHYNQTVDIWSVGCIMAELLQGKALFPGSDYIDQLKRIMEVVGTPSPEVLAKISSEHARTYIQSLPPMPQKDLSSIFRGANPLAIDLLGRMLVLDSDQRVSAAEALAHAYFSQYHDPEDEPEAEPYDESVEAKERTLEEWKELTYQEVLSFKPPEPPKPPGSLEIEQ
For each record, write down the corresponding residual activity.
Numbers only, in %.

Solved entries (count: 4):
Cc1cc(Nc2nc(-c3ccccc3)nc3ccccc23)n[nH]1 :: 96.8
O=C1NC(=O)c2c1c1c3ccccc3[nH]c1c1[nH]c3cc(Br)ccc3c21 :: 93.6
N#Cc1c(NC(=O)c2cccc3ccccc23)sc2c1CCCC2 :: 104
O=C(c1ccccc1)c1ccc(N2CCOCC2)cc1O :: 99.3

Record residual activity per entry; entries follow.
1. O=c1cc(N2CCOCC2)oc2c(-c3ccccc3)cccc12
2. Nc1ncnc2c1cnn2-c1ccccc1
3. COc1cc2c(Nc3ccc(Br)cc3F)ncnc2cc1OCC1CCN(C)CC1

[out]
1: 96.2; 2: 99.9; 3: 97.1

---

target: MARK4 (human) (UniProt Q96L34); assay: radiometric filter-binding kinase assay, Kinase HotSpot; conditions: compound 0.5 µM; ATP 10 µM
Sequence (Q96L34 whole entry, looked up): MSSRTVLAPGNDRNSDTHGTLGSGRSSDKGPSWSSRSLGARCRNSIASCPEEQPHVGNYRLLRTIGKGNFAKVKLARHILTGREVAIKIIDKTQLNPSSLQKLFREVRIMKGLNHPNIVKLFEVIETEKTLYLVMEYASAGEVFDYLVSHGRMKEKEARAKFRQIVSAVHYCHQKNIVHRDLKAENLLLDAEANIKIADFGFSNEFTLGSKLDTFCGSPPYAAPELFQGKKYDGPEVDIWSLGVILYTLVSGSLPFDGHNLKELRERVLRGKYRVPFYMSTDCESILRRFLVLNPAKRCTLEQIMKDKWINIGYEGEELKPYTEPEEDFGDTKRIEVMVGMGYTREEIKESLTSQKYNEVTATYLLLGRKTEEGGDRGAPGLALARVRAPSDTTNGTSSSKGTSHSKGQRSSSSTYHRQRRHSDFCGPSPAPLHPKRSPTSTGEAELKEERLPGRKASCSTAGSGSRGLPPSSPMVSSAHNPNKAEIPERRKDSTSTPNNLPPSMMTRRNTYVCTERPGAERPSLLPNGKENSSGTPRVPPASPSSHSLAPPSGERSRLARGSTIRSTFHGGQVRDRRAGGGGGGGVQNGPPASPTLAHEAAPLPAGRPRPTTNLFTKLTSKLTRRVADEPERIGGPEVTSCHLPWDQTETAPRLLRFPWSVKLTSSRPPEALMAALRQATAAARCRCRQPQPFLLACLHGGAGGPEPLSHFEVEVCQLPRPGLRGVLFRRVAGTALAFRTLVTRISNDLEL
Experimental Endpoint: residual activity (%)
Numbers only, in %.

Look up residual activity for the entries below, preserving their order.
1. O=c1c2ccccc2[nH]c(=S)n1CCN1CCC(=C(c2ccc(F)cc2)c2ccc(F)cc2)CC1
2. COc1cc2c(Nc3ccc(Br)cc3F)ncnc2cc1OCC1CCN(C)CC1

[out]
102
99.4

Batch: residual activity for all items listed.
1. N#C/C(=C1/Nc2ccccc2S1)c1ccnc(NCCc2cccnc2)n1
2. O=c1cc(N2CCOCC2)oc2c(-c3ccccc3)cccc12
3. N#CCCc1ccc2c(c1)-c1[nH]c3ccc([N+](=O)[O-])cc3c1CC(=O)N2
4. COc1cc2ncnc(Nc3ccc(O)c(Br)c3)c2cc1OC

[out]
1. 91.6
2. 91.4
3. 62.5
4. 92.4

---

I'd be grateful if you could share measured residual activity for these entries.
molecular target: UniProt P16591; assay: radiometric filter-binding kinase assay, Kinase HotSpot; details: compound 0.5 µM; ATP 10 µM
Sequence (P16591 whole entry, looked up): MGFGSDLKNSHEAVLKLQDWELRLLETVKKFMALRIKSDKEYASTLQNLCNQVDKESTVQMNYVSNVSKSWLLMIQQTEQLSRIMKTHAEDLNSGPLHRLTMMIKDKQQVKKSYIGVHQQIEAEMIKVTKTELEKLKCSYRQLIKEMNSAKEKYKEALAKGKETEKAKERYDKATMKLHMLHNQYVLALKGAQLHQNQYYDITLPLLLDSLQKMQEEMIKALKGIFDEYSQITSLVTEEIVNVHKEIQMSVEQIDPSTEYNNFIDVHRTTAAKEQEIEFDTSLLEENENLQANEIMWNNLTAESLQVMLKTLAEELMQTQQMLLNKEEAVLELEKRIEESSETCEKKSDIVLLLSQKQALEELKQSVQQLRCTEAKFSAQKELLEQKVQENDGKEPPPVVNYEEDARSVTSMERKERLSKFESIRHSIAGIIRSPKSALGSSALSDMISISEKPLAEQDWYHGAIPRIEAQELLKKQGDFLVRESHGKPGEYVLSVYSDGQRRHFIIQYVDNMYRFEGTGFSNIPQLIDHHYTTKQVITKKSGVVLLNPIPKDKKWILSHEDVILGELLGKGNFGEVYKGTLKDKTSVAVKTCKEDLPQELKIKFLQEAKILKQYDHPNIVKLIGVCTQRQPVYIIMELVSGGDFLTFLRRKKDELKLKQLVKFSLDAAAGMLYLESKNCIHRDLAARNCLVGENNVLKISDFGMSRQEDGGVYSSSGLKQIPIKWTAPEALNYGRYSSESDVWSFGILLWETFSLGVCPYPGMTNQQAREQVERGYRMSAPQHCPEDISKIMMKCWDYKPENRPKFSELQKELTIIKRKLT
Numbers only, in %.

O=C1NC(=O)c2cc(Nc3ccc(F)cc3)c(Nc3ccc(F)cc3)cc21 :: 96.4
O=c1cc(N2CCOCC2)oc2c(-c3ccccc3)cccc12 :: 99.9
CCCCc1c(-c2ccc(O)cc2)[nH]c2nccnc12 :: 55.6
FC(F)(F)c1ccc(/C=C/c2nc(COc3ccc(CCCCn4ccnn4)cc3)co2)cc1 :: 102
O=C(O)c1ccc2c3c1cccc3c(=O)n1c3ccccc3nc21 :: 96.5

State the recorded residual activity for every item in the following list.
1. Nc1ncnc2c1cnn2-c1ccccc1
2. CN[C@@H]1C[C@H]2O[C@@](C)([C@@H]1OC)n1c3ccccc3c3c4c(c5c6ccccc6n2c5c31)C(=O)NC4
3. O=c1c2ccccc2[nH]c(=S)n1CCN1CCC(=C(c2ccc(F)cc2)c2ccc(F)cc2)CC1
4. N#C/C(=C1/Nc2ccccc2S1)c1ccnc(NCCc2cccnc2)n1
5. N#Cc1c(NC(=O)c2cccc3ccccc23)sc2c1CCCC2

[out]
99
0.816
95.2
91
99.7

Below are 6 compounds. Give each one its residual activity.
1. c1ccc(-c2cnc(Nc3ccc(OCCN4CCCC4)cc3)s2)cc1
2. O=C(c1ccccc1)c1ccc(N2CCOCC2)cc1O
3. COc1cc2c(cc1OC)-c1[nH]nc(Nc3cccc(F)c3)c1C2
4. COc1cc2c(N3CCN(C(=O)Nc4ccc(OC(C)C)cc4)CC3)ncnc2cc1OCCCN1CCCCC1
5. N#CCCc1ccc2c(c1)-c1[nH]c3ccc([N+](=O)[O-])cc3c1CC(=O)N2
6. O=c1[nH]c2ccccc2n1C1CCN(Cc2ccc(-c3nc4cc5[nH]cnc5cc4nc3-c3ccccc3)cc2)CC1

[out]
1: 90; 2: 94.2; 3: 94; 4: 104; 5: 72.7; 6: 99.6
